target.under.test: SMS2 (Homo sapiens)
Construct: CAO, Yu research team, National Protein Scientific Center (Shanghai); supplied by an outside laboratory, not a commercial vendor
assay.summary: SMS2 inhibitory activity in vitro, HPLC fluorescence quantitative detection (C6-NBD-ceramide to C6-NBD-SM)
Type: biochemical
details: 10 µM test compound; SMS2 pure enzyme; 37°C, 30 minutes; average of two measurements; read-out: Inhibition rate on SMS2 at C/µM 10
test.readout: inhibition at 10 µM (%)

>>> experimental_value("O=C(Nc1cccnc1)c1sccc1OCc1cccs1 [1-77]")
65
>>> experimental_value("COc1ccc(COc2ccsc2C(=O)Nc2cccnc2)cc1 [1-56]")
50
>>> experimental_value("CN(C(=O)c1sccc1OCc1ccccc1)c1cccnc1 [1-62]")
57
>>> experimental_value("O=C(Nc1cccnc1)c1sccc1OCc1ccc(OC(F)(F)F)cc1 [1-54]")
57
>>> experimental_value("O=C(Nc1cc(Cl)ccn1)c1sccc1OCc1ccccc1 [1-6]")
50
>>> experimental_value("O=C(Nc1cccnc1)c1sccc1OCc1ccc2ccccc2c1 [1-11]")
50
>>> experimental_value("CCCCOc1ccsc1C(=O)Nc1cccnc1 [1-95]")
50
>>> experimental_value("CCCCCCOc1cccc(COc2ccsc2C(=O)Nc2cccnc2)c1 [1-79]")
60
>>> experimental_value("O=C(Nc1cccnc1)c1sccc1OCc1ccsc1 [1-78]")
59
>>> experimental_value("Cc1ccc(COc2ccsc2C(=O)Nc2cccnc2)cc1 [1-42]")
50
>>> experimental_value("Cc1ncccc1NC(=O)c1sccc1OCc1ccccc1 [1-68]")
50

* * *

target.under.test: SMS2 (Homo sapiens, UniProt Q8NHU3)
Construct: CAO, Yu research team, National Protein Scientific Center (Shanghai); supplied by an outside laboratory, not a commercial vendor
Sequence (Q8NHU3 1-365): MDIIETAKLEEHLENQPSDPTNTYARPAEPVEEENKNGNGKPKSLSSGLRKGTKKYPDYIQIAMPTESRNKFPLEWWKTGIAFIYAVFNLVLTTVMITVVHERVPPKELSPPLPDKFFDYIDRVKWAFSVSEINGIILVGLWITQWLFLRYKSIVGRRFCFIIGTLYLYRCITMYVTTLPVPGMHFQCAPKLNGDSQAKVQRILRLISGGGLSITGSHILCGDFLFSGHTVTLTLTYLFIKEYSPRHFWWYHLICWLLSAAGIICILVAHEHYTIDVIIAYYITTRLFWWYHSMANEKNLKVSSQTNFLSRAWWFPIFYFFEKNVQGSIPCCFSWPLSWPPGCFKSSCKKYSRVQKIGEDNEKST
assay.summary: SMS2 inhibitory activity in vitro, HPLC fluorescence quantitative detection (C6-NBD-ceramide to C6-NBD-SM)
Format: biochemical
details: 1 µM test compound; SMS2 pure enzyme; 37°C, 30 minutes; average of two measurements; read-out: Inhibition rate on SMS2 at C/µM 1
test.readout: inhibition at 1 µM (%)

Example results:
>>> experimental_value("Cc1ccccc1COc1ccsc1C(=O)Nc1cccnc1 [1-41]")
72
>>> experimental_value("Cc1ccc(F)cc1COc1ccsc1C(=O)Nc1cccnc1 [1-88]")
76
>>> experimental_value("Cc1cccc(COc2ccsc2C(=O)Nc2cccnc2)c1 [1-43]")
69
>>> experimental_value("O=C(Nc1cccnc1)c1sccc1OCc1ccccc1Br [1-86]")
86
>>> experimental_value("O=C(Nc1cccnc1)c1sccc1OCc1ccccc1OC(F)(F)F [1-53]")
87

A. COc1ccc2ccccc2c1COc1ccsc1C(=O)Nc1cccnc1 [1-16]
B. O=C(Nc1cncc(F)c1)c1sccc1OCc1ccccc1 [1-92]
C. Cc1nc(OCc2ccccc2)c(C(=O)Nc2cccnc2)s1 [12-9]
INPUT: Ordering: ascending inhibition at 1 µM. // ordering of labels required in reply
OUTPUT: C, B, A
